- Test system: LXFL 529 NSCLC
- testDescription: NCI tumour cell line growth inhibition, 48 h

compound	TGI
CC(=O)NNc1nc(C)c(C(=O)NNC(=O)C(=O)Nc2c(C)cccc2C)s1	> 100 µM
Nc1cccc2c1C(=O)c1cccc(N)c1C2=O	> 100 µM
CC1(C)C(=O)C(C)(C)C1=NN	> 100 µM
COC(=O)C(C(=O)C(=O)Nc1ccc(C(F)(F)F)cc1[N+](=O)[O-])c1csc(-n2nc(-c3ccccc3)cc2-c2ccccc2)n1 (configuration not stated)	> 100 µM
O=c1[nH]c(=O)n([C@@H]2C[C@H](CO)[C@H](O)C2)cc1/C=C/Br	> 100 µM
NC1CCCCC1.[O]=[Ge].[O]=[Ge].[O]=[Ge][OH].[O]=[Ge][OH]	> 100 µM
CC(=O)N[C@@H]1C(O)CN2C(=O)C(=O)O[C@H](C(O)CO)[C@@H]12 (some centres not stated)	> 100 µM
C=C(CCCCCCCCC)CC(=O)SCCNC(=O)CCNC(=O)C(O)C(C)(C)COP(=O)(O)OP(=O)(O)OCC1OC(n2cnc3c(N)ncnc32)C(O)C1OP(=O)(O)O (configuration not stated)	> 100 µM
Clc1ccc(Cc2nc3ccccc3s2)c(Cl)c1	31.1 µM
NCCCOCC(=O)O	> 100 µM
Cn1nc(-c2ccccc2)c(C(=O)/C=C/c2ccc(F)cc2)c(N2CCCCC2)c1=O	20.7 µM
Oc1cc(O)c(Oc2cccc(O)c2O)c(O)c1	> 100 µM
O=C(Nc1ccc(Cl)cc1Cl)C(=O)C(C(=O)c1ccc2ccccc2c1)C1OC(=O)c2ccccc21 (configuration not stated)	17.6 µM
COC(=O)C1CCC(=O)N1C(=O)Cc1ccc(OC)cc1 (configuration not stated)	> 100 µM
CC(C)C1(O)C(c2ccccc2)=C(c2ccccc2)C(c2ccccc2)=C1c1ccccc1	51.9 µM
CC1OC(OCC2OC(Oc3c(-c4ccc(O)cc4)oc4cc(O)cc(O)c4c3=O)C(OC3OC(C)C(O)C(O)C3O)C(O)C2O)C(O)C(O)C1O (configuration not stated)	> 100 µM
CC(C)=CCC/C(C)=C/CC/C(C)=C/Cc1c(O)c2ccccc2oc1=O	> 100 µM
